# System: SK-MEL-2 melanoma
# assayNotes: NCI-60 one-dose screen, 48 h (100 = growth as untreated, 0 = no growth, -100 = all killed)
# testConditions: 10 µM unless noted
Compounds without any hit were thinned out: in the full panel of roughly 83,000, 20% have a hit.
measuredMetric: growth (%)

INSERT INTO assay_data (compound, systemundertest, reportedresult) VALUES
  ('Cn1cc2c(=O)nc3c(-c4nc5ccccc5[nH]4)n[nH]n3c2n1', 'SK-MEL-2 melanoma', 30.4),
  ('Cc1c(C(=O)OCCCCOC(=O)c2c(C)n(C)c3scc[n+]23)[n+]2ccsc2n1C', 'SK-MEL-2 melanoma', 106),
  ('COC1=CC(c2ccc[nH]2)=N/C1=C\c1[nH]c(C)c(C(=O)Oc2ccccc2)c1C', 'SK-MEL-2 melanoma', -68.6),
  ('O=S(=O)(O)c1ccc(N=Nc2ccc(N=Nc3cccc4ccccc34)c(S(=O)(=O)O)c2)cc1', 'SK-MEL-2 melanoma', 99.8),
  ('CC(C)=CCc1cc(O)c(O)c2oc3cc(O)cc(O)c3c(=O)c12', 'SK-MEL-2 melanoma', 97.3),
  ('COc1ccccc1/C=C1\COc2ccc(O)c(O)c2C1=O', 'SK-MEL-2 melanoma', 58.5),
  ('C=C(C)[C@@H]1CC[C@]2(C(=O)O)CC[C@]3(C)[C@H](CC[C@@H]4[C@@]5(C)CCC(N)C(C)(C)[C@@H]5CC[C@]43C)[C@@H]12 (stereo partly specified)', 'SK-MEL-2 melanoma', 93),
  ('O=C(Nc1ccc(F)cc1)c1cc2cc(Nc3nc(-c4ccccc4)nc4ccccc34)ccc2oc1=O', 'SK-MEL-2 melanoma', 104),
  ('COc1ccc(C/C(C)=C(/c2ccc(OCCN3CCCCCC3)cc2)c2ccc(OC(=O)c3ccccc3)cc2)cc1', 'SK-MEL-2 melanoma', 97.4),
  ('C/C=C(/C)C(=O)O[C@@H]1CC(C)(C)CC2C34OC(=O)[C@@]21CC[C@@]3(C)[C@]1(C)CCC2C(C)(C)C(=O)CC[C@]2(C)C1C[C@@H]4Cl (stereo partly specified)', 'SK-MEL-2 melanoma', 103),
  ('O=C([C@H]1C[C@H]1c1ccc(S(F)(F)(F)(F)F)cc1)N1CCN(c2cc(Cl)ccc2C(F)(F)F)CC1', 'SK-MEL-2 melanoma', 91.7),
  ('COc1ccc(-c2c[nH]c(C(=O)O)c2-c2cc(OC)c(OC)c(OC)c2)cc1', 'SK-MEL-2 melanoma', 49.2),
  ('Nc1ncnc2c1C(c1ccc([N+](=O)[O-])cc1)c1sc3c(F)cccc3c1O2 (stereo unspecified)', 'SK-MEL-2 melanoma', 107),
  ('COc1ccc(-c2ccccc2)cc1-c1c(Nc2cc(Cl)cc(Cl)c2O)c(=O)c1=O', 'SK-MEL-2 melanoma', -26.5),
  ('CCOc1nc(-c2ccccc2)cc2c(O)c(C(=O)N/N=C/c3ccc(N(C)C)cc3)[nH]c(=O)c12', 'SK-MEL-2 melanoma', 78.8),
  ('COc1ccc2c(c1)oc1c(C)c3c(c(C)c12)C(=O)N(Nc1ccccc1)C3=O', 'SK-MEL-2 melanoma', 99);

---

# Tested on: HCC-2998 colon
# assayNotes: NCI-60 one-dose screen, 48 h
# testConditions: 10 µM unless noted
This is part of a sample that, as a whole, favours compounds with a hit. Of some 83,000 tested, about 20% had one in any assay. Active and inactive are the calls of the source. Rule for the calls: active = growth percent below 10; inactive = the rest.
Labels: TRUE (active), FALSE (inactive)

INSERT INTO results (molecule, assignedcategory) VALUES
  ('Cc1ccc(Cc2cnc(NC(=O)c3cc(C)oc3C)s2)cc1', 'FALSE'),
  ('Cc1ccc(C(=O)N(CCCN)[C@@H](c2nc3cc(Cl)ccc3c(=O)n2Cc2ccccc2)C(C)C)cc1', 'TRUE'),
  ('S=c1nc(CS)[nH]c2ccccc12', 'FALSE'),
  ('CC(C)(C)c1cc(C(C)(C)c2ccccc2)cc(Cc2cc(C(C)(C)c3ccccc3)cc(C(C)(C)C)c2O)c1O', 'FALSE'),
  ('Cc1ccc(-c2nc3nc(-c4ccccc4)nc(N4CCN(S(=O)(=O)c5ccccc5)CC4)c3o2)cc1', 'FALSE'),
  ('O=C(/C=C/c1ccc([N+](=O)[O-])cc1)c1ccccc1', 'FALSE'),
  ('O=C1Nc2ccccc2/C1=C/c1cccn1CCCCCn1c2ccccc2c(=O)c2ccccc21', 'FALSE'),
  ('COc1cc2nc3cc([N+](=O)[O-])ccc3c(NCCNCC(C)(C)O)c2cc1OC', 'TRUE'),
  ('CCOC(=O)n1cc(-c2nonc2-c2cn(C)c3ccc(OC)cc23)c2cc(F)ccc21', 'FALSE'),
  ('C=C1C(=O)O[C@H]2[C@H]1CC/C(COC(=O)NCc1ccc(Cn3c(=O)sn(CCCI)c3=O)cc1)=C\CC[C@@]1(C)O[C@@H]21', 'FALSE'),
  ('COc1cc(/C=C/C(=O)c2ccc(NC(=O)CSc3nnc(-c4cc(-c5ccccc5)nc5ccccc45)n3-c3ccccc3)cc2)cc(OC)c1OC', 'FALSE'),
  ('O=C([C@H]1C[C@H]1c1ccc(S(F)(F)(F)(F)F)cc1)N1CCN(c2cc(Cl)ccc2C(F)(F)F)CC1', 'FALSE'),
  ('CS(=O)(=O)Nc1cc(-c2ccc3ncnc(Nc4ccc(F)c(Cl)c4)c3c2)cnc1Cl', 'FALSE'),
  ('Nc1nc(N)c2c(n1)NC(c1ccc(Cl)cc1)CC(c1cccc(Nc3ccncc3)c1)=N2 (stereo not drawn)', 'FALSE'),
  ('N=C1/C(=C2\NC3C=CC=CC3S2)C(c2ccc(Cl)cc2)C2C(=O)N(c3ccccc3)C(=S)N12 (stereo not drawn)', 'FALSE'),
  ('CCNC(=S)n1nc(SC)c(C(=O)OCC)c1N', 'FALSE'),
  ('O=C1c2cc3c(cc2-c2c1c1ccc(Cl)cc1c(=O)n2CCCn1ccnc1)OCO3', 'FALSE'),
  ('Cc1c(C(C)(C)O)cn2ncnc(Oc3ccc(NC(=O)Nc4ccc(Cl)c(C(F)(F)F)c4)cc3)c12', 'FALSE'),
  ('Cc1cc(N2CCN(CC(=O)Nc3ccc4c(ccn4Cc4ccccc4)c3)CC2)nc(N2CCCCCC2)n1', 'FALSE'),
  ('CN(Cc1ccccc1)c1nc(Cl)c(C2CC(c3ccc4c(c3)OCO4)=NN2c2cc(Cl)cc(Cl)c2)s1 (stereo not drawn)', 'FALSE'),
  ('CNC(=O)c1cc(Oc2ccc3nc(NC(=O)Nc4ccc(C(F)(F)F)cc4)sc3c2)ccn1', 'FALSE'),
  ('COc1ccc(/C=C2\COc3ccc(O)c(O)c3C2=O)c(OC)c1OC', 'FALSE'),
  ('O=C1/C(=C/c2ccc(F)c(F)c2)CN(C(=O)C(Cl)Cl)C/C1=C\c1ccc(F)c(F)c1', 'TRUE'),
  ('COc1c(O)c(O)cc2c3c(oc12)CC(c1ccc2c(c1)OCO2)CC3=O (stereo not drawn)', 'FALSE'),
  ('COc1cc(CNC(=O)CCCC/C=C/C(C)C)ccc1OCc1cn(-c2ccc([N+](=O)[O-])cc2)nn1', 'FALSE'),
  ('COc1cccc(C2C(C#N)=C(N)Oc3cc(OCCCCCC[P+](c4ccccc4)(c4ccccc4)c4ccccc4)ccc32)c1 (stereo not drawn)', 'TRUE'),
  ('COC1=CC(=O)C(OC)=C(O)C1=O', 'FALSE'),
  ('O=C(CN1C(=O)S/C(=C\C(Cl)=C\c2ccccc2)C1=O)NCCCn1ccnc1', 'FALSE');

Cited source: PubChem BioAssay (NCI)
